Hey, just so you know, these numbers are from patent US5968907A.

inhibition at 1000 µg/mL by entry:
target: cholera toxin (Vibrio cholerae serotype O1, UniProt P01556); assay: biochemical; conditions: read-out: inhibition of binding of cholera toxin to ganglioside GD1b
measurementType: inhibition at 1000 µg/mL

compound	result
O=C(O)CCNC1CCCC(S[C@@H]2O[C@H](CO)[C@H](O)[C@H](O)[C@H]2O)C1 (some centres unmarked)	< 20%
CC1CCC(NC2CC(S[C@@H]3O[C@H](CO)[C@H](O)[C@H](O)[C@H]3O)C(C)(C)C2)CC1 (some centres unmarked)	≥ 20%
CC(N)CC(C)S[C@@H]1O[C@H](CO)[C@H](O)[C@H](O)[C@H]1O (some centres unmarked)	≥ 20%
CC(CC(C)S[C@@H]1O[C@H](CO)[C@H](O)[C@H](O)[C@H]1O)N[C@@H](Cc1c[nH]c2ccccc12)C(=O)O (some centres unmarked)	< 20%
O=C(O)[C@H](Cc1c[nH]cn1)NC1CCCCC1S[C@@H]1O[C@H](CO)[C@H](O)[C@H](O)[C@H]1O (some centres unmarked)	< 20%
O=C(O)CCNC1CCC(S[C@@H]2O[C@H](CO)[C@H](O)[C@H](O)[C@H]2O)C1 (some centres unmarked)	< 20%
NC1CCC(S[C@@H]2O[C@H](CO)[C@H](O)[C@H](O)[C@H]2O)C1 (some centres unmarked)	≥ 20%
CC(C)C[C@H](NC1CCC(S[C@@H]2O[C@H](CO)[C@H](O)[C@H](O)[C@H]2O)C1)C(=O)O (some centres unmarked)	< 20%
CC(CC(S[C@@H]1O[C@H](CO)[C@H](O)[C@H](O)[C@H]1O)c1ccccc1)NC(=O)c1ccccc1C(=O)O (some centres unmarked)	< 20%
OC[C@H]1O[C@@H](SC2CCC(O)C2)[C@H](O)[C@@H](O)[C@H]1O (some centres unmarked)	< 20%
O=C(O)[C@H](Cc1c[nH]cn1)NC1CCCC(S[C@@H]2O[C@H](CO)[C@H](O)[C@H](O)[C@H]2O)C1 (some centres unmarked)	< 20%
CC(C)C[C@H](NC1CCC(C)(C)C(S[C@@H]2O[C@H](CO)[C@H](O)[C@H](O)[C@H]2O)C1)C(=O)O (some centres unmarked)	< 20%
N=C(N)NCCC[C@H](NC1CCCCC(S[C@@H]2O[C@H](CO)[C@H](O)[C@H](O)[C@H]2O)C1)C(=O)O (some centres unmarked)	< 20%
O=C(O)[C@H](Cc1c[nH]cn1)NC1CCCCC(S[C@@H]2O[C@H](CO)[C@H](O)[C@H](O)[C@H]2O)C1 (some centres unmarked)	< 20%
CC(CC(S[C@@H]1O[C@H](CO)[C@H](O)[C@H](O)[C@H]1O)c1ccccc1)N[C@@H](Cc1c[nH]cn1)C(=O)O (some centres unmarked)	≥ 20%
NC1CCCC(S[C@@H]2O[C@H](CO)[C@H](O)[C@H](O)[C@H]2O)C1 (some centres unmarked)	< 20%
CC(=O)NC1CCC(S[C@@H]2O[C@H](CO)[C@H](O)[C@H](O)[C@H]2O)C1 (some centres unmarked)	≥ 20%
CC(=O)NC1CCCC(S[C@@H]2O[C@H](CO)[C@H](O)[C@H](O)[C@H]2O)C1 (some centres unmarked)	≥ 20%
OC[C@H]1O[C@@H](SC2CCCC2O)[C@H](O)[C@@H](O)[C@H]1O (some centres unmarked)	< 20%
O=C(O)c1ccccc1C(=O)NC1CCCC1S[C@@H]1O[C@H](CO)[C@H](O)[C@H](O)[C@H]1O (some centres unmarked) [Example D1]	≥ 20%
CC1(C)CCC(N[C@@H](CCCNC(=N)N)C(=O)O)CC1S[C@@H]1O[C@H](CO)[C@H](O)[C@H](O)[C@H]1O (some centres unmarked)	< 20%
O=C(O)CCNC1CCCC1S[C@@H]1O[C@H](CO)[C@H](O)[C@H](O)[C@H]1O (some centres unmarked)	< 20%
CC(CC(C)S[C@@H]1O[C@H](CO)[C@H](O)[C@H](O)[C@H]1O)NCC(=O)O (some centres unmarked)	< 20%
CC(=O)NC(C)CC(C)S[C@@H]1O[C@H](CO)[C@H](O)[C@H](O)[C@H]1O (some centres unmarked)	< 20%
CC1(C)CC(N)CC1S[C@@H]1O[C@H](CO)[C@H](O)[C@H](O)[C@H]1O (some centres unmarked)	≥ 20%
O=C(O)[C@H](Cc1c[nH]c2ccccc12)NC1CCCC(S[C@@H]2O[C@H](CO)[C@H](O)[C@H](O)[C@H]2O)C1 (some centres unmarked)	< 20%
CC(C)C[C@H](NC1CCCCC1S[C@@H]1O[C@H](CO)[C@H](O)[C@H](O)[C@H]1O)C(=O)O (some centres unmarked)	≥ 20%
N=C(N)NCCC[C@H](NC1CCC(S[C@@H]2O[C@H](CO)[C@H](O)[C@H](O)[C@H]2O)C1)C(=O)O (some centres unmarked)	< 20%
CC(CC(C)S[C@@H]1O[C@H](CO)[C@H](O)[C@H](O)[C@H]1O)NC(=O)c1ccccc1C(=O)O (some centres unmarked)	≥ 20%
